- target_or_test_system: Macaca fascicularis IL-36R extracellular domain expressed with a C-terminal myc-myc-hexahistidine tag (mfIL-36R-MMH) (Macaca fascicularis)
- assay_notes: SPR Biacore 4000, mAb captured on anti-hFc, 37C
reported_endpoint: koff (s⁻¹)
Write it as a number; the unit s⁻¹ goes unstated.

binder	reported_endpoint	value_reported
H4H14708P2 (antibody, human IgG4 S228P, kappa, V domains shown) VH: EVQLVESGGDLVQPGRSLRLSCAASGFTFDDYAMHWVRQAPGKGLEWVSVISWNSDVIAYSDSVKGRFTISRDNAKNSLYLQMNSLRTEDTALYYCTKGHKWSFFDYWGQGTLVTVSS VL: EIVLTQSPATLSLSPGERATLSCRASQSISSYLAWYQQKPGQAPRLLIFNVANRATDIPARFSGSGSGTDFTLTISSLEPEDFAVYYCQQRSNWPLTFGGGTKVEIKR	koff	0.00181
H4H14731P (antibody, human IgG4 S228P, kappa, V domains shown) VH: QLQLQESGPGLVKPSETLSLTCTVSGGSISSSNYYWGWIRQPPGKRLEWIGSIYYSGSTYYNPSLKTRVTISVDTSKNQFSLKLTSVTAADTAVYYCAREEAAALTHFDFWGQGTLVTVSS VL: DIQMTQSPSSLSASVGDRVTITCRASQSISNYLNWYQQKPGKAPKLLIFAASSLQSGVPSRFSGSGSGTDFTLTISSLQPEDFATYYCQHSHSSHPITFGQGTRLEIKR	koff	0.00322
H4H14709P (antibody, human IgG4 S228P, kappa, V domains shown) VH: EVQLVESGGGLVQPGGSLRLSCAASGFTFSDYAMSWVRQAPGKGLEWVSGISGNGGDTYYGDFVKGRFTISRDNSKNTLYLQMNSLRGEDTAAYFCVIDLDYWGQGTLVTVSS VL: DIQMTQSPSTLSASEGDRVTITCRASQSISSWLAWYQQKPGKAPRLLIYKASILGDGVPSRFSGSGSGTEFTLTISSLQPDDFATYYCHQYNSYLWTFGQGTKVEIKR	koff	0.000871

Looking up H4H14728P (antibody, human IgG4 S228P, kappa, V domains shown) VH: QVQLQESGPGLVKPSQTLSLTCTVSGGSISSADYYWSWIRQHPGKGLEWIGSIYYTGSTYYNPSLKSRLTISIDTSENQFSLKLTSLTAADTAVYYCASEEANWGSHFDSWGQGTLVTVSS VL: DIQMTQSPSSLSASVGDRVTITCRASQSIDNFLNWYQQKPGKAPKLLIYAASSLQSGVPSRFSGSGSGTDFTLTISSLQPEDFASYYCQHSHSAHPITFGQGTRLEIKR , I see its koff listed as 0.00134
